Method Notes: in vitro
Assay type: cell-based, sheep
Experimental Setup: sheep
Attribute Measured: hemolysis at 1 h, 500 μg/mL

Chemical Structure	Measurement
O=S(=O)(NNC(=S)NC1CCCCC1)c1ccccc1	14.2%
CCCCNC(=S)NNS(=O)(=O)c1ccccc1	19.5%
CNC(=S)NNS(=O)(=O)c1ccccc1	45.3%
CCCCCCNC(=S)NNS(=O)(=O)c1ccccc1	18.2%

---

Listing: MIC of selected compounds
Tested on: Bacillus subtilis ATCC 6633
Attribute Measured: MIC (µg/mL)

Compound	Attribute Measured	Measure Unit	Measurement
O=S(=O)(NNC(=S)NC1CCCCC1)c1ccccc1	MIC	µg/mL	500
CCCCNC(=S)NNS(=O)(=O)c1ccccc1	MIC	µg/mL	1000
CCCCCCNC(=S)NNS(=O)(=O)c1ccccc1	MIC	µg/mL	125
CNC(=S)NNS(=O)(=O)c1ccccc1	MIC	µg/mL	125
O=C(O)c1cn(C2CC2)c2cc(N3CCNCC3)c(F)cc2c1=O [CIP, ciprofloxacin, reference compound]	MIC	µg/mL	0.03

---

Test system: Staphylococcus aureus ATCC 43300
Method Notes: Broth microdilution antimicrobial activity
Type: cell-based
Experimental Setup: Staphylococcus aureus ATCC 43300
Listing: MBC/MIC of selected molecules

Molecule	Sign Qualifier	MBC/MIC
CNC(=S)NNS(=O)(=O)c1ccccc1 [WZ4]	=	4
O=C(O)c1cn(C2CC2)c2cc(N3CCNCC3)c(F)cc2c1=O [CIP, ciprofloxacin, reference compound]	=	1
O=S(=O)(NNC(=S)NC1CCCCC1)c1ccccc1 [WZ1]	>	4
CCCCCCNC(=S)NNS(=O)(=O)c1ccccc1 [WZ3]	=	2
CCCCNC(=S)NNS(=O)(=O)c1ccccc1 [WZ2]	>	1

---

In what follows, each item is paired with its MIC for Escherichia coli ATCC 25922.
Attribute Measured: MIC (µg/mL)

Compound	Measure Unit	Sign Qualifier	Measurement
CNC(=S)NNS(=O)(=O)c1ccccc1 [WZ4]	µg/mL	>	2000
O=C(O)c1cn(C2CC2)c2cc(N3CCNCC3)c(F)cc2c1=O [CIP, ciprofloxacin, reference compound]	µg/mL	=	0.004
CCCCNC(=S)NNS(=O)(=O)c1ccccc1 [WZ2]	µg/mL	>	2000
CCCCCCNC(=S)NNS(=O)(=O)c1ccccc1 [WZ3]	µg/mL	=	500
O=S(=O)(NNC(=S)NC1CCCCC1)c1ccccc1 [WZ1]	µg/mL	>	2000

---

Listing: MBC/MIC of selected compounds
Tested on: Salmonella Typhimurium ATCC 14028
Method Notes: Broth microdilution antimicrobial activity
Type: cell-based
Procedure: Reference strains of microorganisms that came from American Type Culture Collection (ATCC) (Manassas, VA, USA) were used for this study. […] Then, the microbial suspensions were introduced into each well of the microplate and incubated for 18–24 h at 35 °C. […] Next, the values of the minimum bactericidal concentration (MBC) and minimum fungicidal concentration (MFC) of WZ1–WZ4 were assessed. […] The lowest concentrations of compounds without microbial growth were read as MBC or MFC. […]
Attribute Measured: MBC/MIC

Compound	Subject Of Test	Attribute Measured	Measurement
O=C(O)c1cn(C2CC2)c2cc(N3CCNCC3)c(F)cc2c1=O [CIP, ciprofloxacin, reference compound]	Salmonella Typhimurium ATCC 14028	MBC/MIC	1
CCCCNC(=S)NNS(=O)(=O)c1ccccc1	Salmonella Typhimurium ATCC 14028	MBC/MIC	> 1
CNC(=S)NNS(=O)(=O)c1ccccc1	Salmonella Typhimurium ATCC 14028	MBC/MIC	> 1
O=S(=O)(NNC(=S)NC1CCCCC1)c1ccccc1	Salmonella Typhimurium ATCC 14028	MBC/MIC	> 1
CCCCCCNC(=S)NNS(=O)(=O)c1ccccc1	Salmonella Typhimurium ATCC 14028	MBC/MIC	> 2
